# System: wheat (Tr)
# assay_explanation: Test Example 9: crop plant selectivity by upland field foliage treatment (wheat), phytotoxicity;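 also: grade of crop injury; 5 = at least 90%; 4 = 70 to 90%; 3 = 50 to 70%; 2 = 30 to 50%; 1 = 10 to 30%; 0 = under 10%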
# experimental_parameters: dose 1.6 g ai/10a, 14th day after treatment
Phytotoxicity Tr values by entry
measured_quantity: Phytotoxicity Tr

CCCOCc1cc2c(-c3ccc(C(F)(F)F)n(C)c3=O)c(F)cc(Cl)c2o1 [Compound 4-32] : 2
Cn1c(C(F)(F)F)ccc(-c2c(F)cc(Cl)c3oc(C(Br)Br)cc23)c1=O [Compound No. 4-27] : 2
Cn1c(C(F)(F)F)ccc(-c2cc(OC3CCCC3)c(Cl)cc2F)c1=O [1-26] : 2
CCOC(=O)CON=Cc1cc(-c2ccc(C(F)(F)F)n(C)c2=O)c(F)cc1Cl [Compound 1-191] : 2
CC(C)Sc1cc(-c2ccc(C(F)(F)F)n(C)c2=O)c(F)cc1Cl [1-43] : 2
CCOC(=O)c1cc(-c2ccc(C(F)(F)F)n(C)c2=O)c(F)cc1Cl [1-65] : 2
C#CCN1C(=O)COc2cc(Cl)c(-c3ccc(C(F)(F)F)n(C)c3=O)cc21 [Compound 2-25] : 2
CC(C)OCc1cc2c(-c3ccc(C(F)(F)F)n(C)c3=O)c(F)cc(Cl)c2o1 [Compound 4-33] : 2
CCCc1cc2c(Cl)cc(F)c(-c3ccc(C(F)(F)F)n(C)c3=O)c2o1 [Compound 5-3] : 1
COCCOc1cc(-c2ccc(C(F)(F)F)n(C)c2=O)c(F)cc1Cl [1-170] : 1
COCOCc1cc(-c2ccc(C(F)(F)F)n(C)c2=O)c(F)cc1Cl [Compound 1-200] : 2
Cn1c(C(F)(F)F)ccc(-c2cc(Oc3ncccn3)c(Cl)cc2Cl)c1=O [1-41] : 2
C#CC(CC)Oc1cc(-c2ccc(C(F)(F)F)n(C)c2=O)c(F)cc1Cl (racemic) [1-122] : 2
C=CC(O)c1cc(-c2ccc(C(F)(F)F)n(C)c2=O)c(F)cc1Cl (stereo not drawn) [Compound 1-197] : 2
C#CCOc1cc(-c2ccc(C(F)(F)F)n(N)c2=O)c(F)cc1Cl [1-178] : 2
COC(C)c1cc2c(-c3ccc(C(F)(F)F)n(C)c3=O)c(F)cc(Cl)c2o1 (stereo not drawn) [Compound 4-35] : 2
C=CC(C)Oc1cc(-c2ccc(C(F)(F)F)n(C)c2=O)c(F)cc1Cl (stereo not drawn) [Compound 1-182] : 1
CCc1cc2c(Cl)cc(F)c(-c3ccc(C(F)(F)F)n(C)c3=O)c2o1 [Compound 5-2] : 2
